System: C. neoformans 6995 strain
Settings: 6 hours 37° C.; multiple experiments
Where no end group is shown, it is not given here.
experimentalReadout: pEC50
Formally, pEC50 is defined as -log10 of the concentration c, with c in mol/L.

Reported pEC50 ( NQVSLTCLVK [Peptide N10K, N Q V S L T C L V K] ) = 5.29

----------
Tested on: C. neoformans 6995 strain
Details: 6995 strain, 6 h
Where no end group is shown, it is not given here.
experimentalReadout: pEC50
Formally, pEC50 is defined as -log10 of the concentration c, with c in mol/L.

Reported pEC50 ( TCRVDHRGLTF [Peptide T11F, T C R V D H R G L T F] ) = 5.57
